These data points were gathered from the supplement of paper PMC8728848.

target: Gal(a1-4)Gal(b1-4)GlcNAc(b1-3)Gal(b1-4)Glc; assay: glycan array binding signal (z-score within array); higher = stronger binding; conditions: glycan notation: IUPAC condensed, linker removed
Only a selection was taken, and the strongest signals are over-represented in it overall.
Class definitions on glycan array binding signal (z-score): low band: < -0.1; middle band: ≥ -0.1 and < 0.06; high band: ≥ 0.06

{"columns": ["Binder", "Group Label"],
 "data": [
  ["SSR2 (Sclerotium rolfsii) (protein) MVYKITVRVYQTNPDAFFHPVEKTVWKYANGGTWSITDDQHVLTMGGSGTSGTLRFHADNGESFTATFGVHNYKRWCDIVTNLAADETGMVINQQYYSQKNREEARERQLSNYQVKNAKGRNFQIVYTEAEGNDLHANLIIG", "low band"],
  ["RbmA (Vibrio cholerae), A0A2H4NFB8 (protein) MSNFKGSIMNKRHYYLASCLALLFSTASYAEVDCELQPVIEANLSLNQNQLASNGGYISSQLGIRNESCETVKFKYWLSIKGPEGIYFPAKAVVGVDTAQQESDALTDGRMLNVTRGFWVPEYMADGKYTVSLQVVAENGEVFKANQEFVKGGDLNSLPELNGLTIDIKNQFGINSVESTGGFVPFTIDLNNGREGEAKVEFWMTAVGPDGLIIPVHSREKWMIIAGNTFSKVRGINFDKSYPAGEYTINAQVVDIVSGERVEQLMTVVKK", "middle band"],
  ["AFL6 (Aspergillus fumigatus), Q4WKJ1 (protein) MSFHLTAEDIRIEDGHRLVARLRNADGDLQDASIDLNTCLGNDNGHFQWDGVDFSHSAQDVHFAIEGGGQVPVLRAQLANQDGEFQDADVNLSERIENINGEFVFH", "middle band"]
]}

Now consider the entry below.
Problem: Classify this binder: Wzz (Escherichia coli) (protein) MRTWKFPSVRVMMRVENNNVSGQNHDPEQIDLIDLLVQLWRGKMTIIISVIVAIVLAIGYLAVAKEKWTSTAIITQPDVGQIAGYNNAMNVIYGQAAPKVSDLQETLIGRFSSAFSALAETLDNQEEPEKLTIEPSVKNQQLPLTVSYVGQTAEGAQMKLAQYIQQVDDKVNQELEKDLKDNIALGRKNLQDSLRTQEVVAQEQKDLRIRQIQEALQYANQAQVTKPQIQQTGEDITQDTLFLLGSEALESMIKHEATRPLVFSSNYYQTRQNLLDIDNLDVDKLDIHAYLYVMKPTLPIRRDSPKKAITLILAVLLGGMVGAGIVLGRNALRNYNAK
Solution: middle band
